test: JC-1 mitochondrial signal, unstimulated MM1S myeloma – cell-based, JC-1 fluorescence, 24 h, 100 nL compound, profiling panel (AID 1170); conditions: MM1S mitochondrial potential, higher = more signal; also: test concentration not given here
Threshold rule: z-score greater than or equal to 0.3 is Y; below that, N.

Below, 4 molecules whose answers are already recorded.
CCCC=C(CCC)[C@@H](NS(=O)(=O)CC12CCC(CC1=O)C2(C)C)c1ccc(C(=O)OC)cc1 (stereo not given in full) : N
C=CCC(OC(C)=O)[C@@H]1[C@@H](N(Cc2ccc(-c3ccccc3)cc2)C(=O)c2ccc(-c3ccccc3)cc2)c2cc(OCCCO)ccc2N1C(=O)c1ccc2ccccc2c1 (stereo not given in full) : Y
O=C1OCCC=C[C@H]2OC34C=CCN(Cn5nnc6ccccc65)C(=O)[C@H]3N(CCCO)C(=O)[C@@H]4C12 (stereo not given in full) : N
COCC(=C=CC[C@H](O)c1ccc(OCCO)cc1)CCO : Y

With those in mind, consider the next molecule.
Confirm if z-score reported for the molecule O=C1CS(=O)(=O)C(c2cccc([N+](=O)[O-])c2)N1c1ccccc1 (stereo not given) is 0.3 or above.
Y

----------
assay: blockers of DNA damage checkpoint Chk1 activation – imaging, HeLa, hydroxyurea, phospho-Chk1 antibody, percent positive cells, primary screen (AID 1186); settings: hydroxyurea-induced phospho-Chk1 immunofluorescence imaging, higher = more signal
Consider the following molecules; for each one, report its z-score.
Answers are plain numbers.

Completed entries (count: 3):
C=C[C@H]1C(C(=O)OCC)=CC[C@@H](c2ccccc2)N1S(=O)(=O)c1ccc(C)cc1 : -0.229
COC(=O)C1=CC(CCCO)=CC(c2cccs2)N(C)C=C1C(=O)OC (stereo not given) : 0.176
CN(C)c1ccc(C(O)C2C=CC3C(=O)NC(=O)C3N2Nc2ccccn2)cc1 (stereo not given) : 0.431

Please give z-score for each item listed below.
1. COCCOC(=O)N1C(=O)[C@@]2(c3cc(C#CC4=CCCCC4)ccc31)[C@H](C(=O)Nc1nc3ccccc3s1)[C@H]1C(=O)O[C@H](c3ccccc3)[C@H](c3ccccc3)N1[C@@H]2c1ccc(O)cc1
2. CCCC=C(CCC)[C@@H](NC(=O)C(C)(C)C)c1ccc(C(=O)OC)cc1
3. C=C[C@@H](OC)[C@H](OC(=O)Nc1ccc(OC)cc1)c1ccc(O)c(F)c1
4. CCCCCCc1nc(Cc2cc(OC)c(OC)c(OC)c2)cc2c1[Si](C(C)C)(C(C)C)OC2
5. C=CCNC(=O)[C@@H]1[C@H]2C(=O)O[C@H](c3ccccc3)[C@H](c3ccccc3)N2[C@H](c2ccccc2OCCO)[C@@]12C(=O)Nc1ccc(C#CCCO)cc12

1: -0.0232; 2: -0.75; 3: -0.528; 4: -1.16; 5: -0.38

Hi! Can you tell me z-score for each of these molecules?
1. C=CCC(OC(C)=O)[C@@H]1[C@@H](N(Cc2cc3ccccc3o2)C(=O)Cc2ccc(F)cc2)c2cc(OCCCO)ccc2N1C(=O)Cc1ccc2ccccc2c1 (stereo not given in full)
2. O=C1N(CCS(=O)(=O)c2ccccc2)c2ccccc2[C@H]2OC(c3ccc(OCCCO)cc3)=N[C@@]12Cc1ccccc1
3. CC(C)N1C(=O)C[C@@](C(=O)NC2CC2)(c2ccc([N+](=O)[O-])cc2)[C@H]1c1ccc(CO)cc1
4. C[N+](C)(C)CCCC[C@@H]1NC(=O)[C@@H]2C[C@H](C(=O)NCCCCCCN)[C@H](c3cccc(OCCO)c3)N2C1=O
5. COC(=O)[C@]1(CCS(=O)(=O)c2ccccc2)N=C(c2ccc(OCCCO)cc2)O[C@@H]1c1ccccc1N=[N+]=[N-]
6. COc1ccc(C(=O)Nc2ccc(CN3C(=O)[C@]4(O[C@H](CC(=O)N5Cc6ccccc6C[C@H]5CO)[C@@H]([Si](C)(C)c5ccc(OC)cc5)[C@@H]4C)c4ccccc43)cc2)cc1
7. C=CC[C@H](OC(=O)Nc1ccc(SC)cc1)c1ccc(O)c2ccccc12

[0.725, -0.37, 0.254, -0.529, -0.265, 0.714, -0.0114]
